Target: mutant MGL (Homo sapiens, UniProt Q99685, L169S/L176S)
Assay: MGL ThermoFluor assay - mutant
Format: binding
Conditions: ThermoFluor concentration-response, read-out: MGL mutant ThermoFluor Kd
measured-attribute: pKd
One number for each entry, as −log10 of the molar value.

# per-item lookup of pKd; items listed below
1. O=C(c1ccc(-n2nc3c(c2-c2cccc(C(F)(F)F)c2)CCC3)cc1)N1CC(N2CCN(C(=O)c3nccs3)CC2)C1 [Cpd 1330]
2. O=C(c1ccc(Sc2cccc(Cl)c2)cc1)N1CC(N2CCN(C(=O)c3cscn3)CC2)C1 [Cpd 429]
3. O=C(c1ccc2c(c1)CCN2Cc1ccccc1)N1CC(N2CCN(C(=O)c3nccs3)CC2)C1 [Cpd 994]
4. O=C(c1ccc2c(ccn2-c2ncccn2)c1)N1CC(N2CCN(C(=O)c3cscn3)CC2)C1 [Cpd 1201]
5. O=C(c1ccccc1)N1CCN(C2CN(C(=O)c3ccc(CNc4c(F)cccc4F)cc3)C2)CC1 [Cpd 556]
6. O=C(c1cc2cc(C(F)(F)F)ccc2s1)N1CCN(C2CN(C(=O)c3nccs3)C2)CC1 [Cpd 676]
7. COc1cncc(Oc2ccc(C(=O)N3CC(N4CCN(C(=O)c5nccs5)CC4)C3)cc2)c1 [Cpd 904]
8. O=C(c1csnn1)N1CC(N2CCN(C(=O)c3cc4cc(C(F)(F)F)ccc4s3)CC2)C1 [Cpd 753]

1. 8.70
2. 7.48
3. 8.70
4. 6.75
5. 7.01
6. 7.54
7. 6.20
8. 6.29

###

Target: purified wild type MGL (wt-MGLL 6H-11-313) (Homo sapiens, UniProt Q99685)
Sequence (Q99685 1-303): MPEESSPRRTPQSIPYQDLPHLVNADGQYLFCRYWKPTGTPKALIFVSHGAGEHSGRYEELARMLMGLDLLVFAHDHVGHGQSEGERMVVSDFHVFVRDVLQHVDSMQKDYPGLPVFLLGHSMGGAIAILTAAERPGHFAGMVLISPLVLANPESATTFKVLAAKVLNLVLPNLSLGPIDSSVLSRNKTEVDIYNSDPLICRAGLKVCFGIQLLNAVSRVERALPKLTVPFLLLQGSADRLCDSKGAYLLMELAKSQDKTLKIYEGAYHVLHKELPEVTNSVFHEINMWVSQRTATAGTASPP
measured-attribute: pIC50
One number for each entry, as −log10 of the molar value.

Below: 3 compounds and their reported pIC50.
O=C(c1cc2ccc(C(F)(F)F)nc2[nH]1)N1CC(N2CCN(C(=O)c3nccs3)CC2)C1
5.78
O=C(c1nccs1)N1CCN(C2CN(C(=O)c3sc4cc(Cl)ccc4c3C(F)(F)F)C2)CC1
7.96
O=C(c1cc(Br)cs1)N1CC(N2CCN(C(=O)c3nccs3)CC2)C1
5.69

Fill in the recorded pIC50 for this compound, with purified wild type MGL (wt-MGLL 6H-11-313) (Homo sapiens, UniProt Q99685) as test system: O=C(c1nccs1)N1CCN(C2CN(C(=O)c3cnn(-c4ccccc4)c3-c3ccccc3)C2)CC1
5.48

###

Hi there, I'd appreciate the recorded Kd for every entry that follows.
Molecular target: mutant MGL (Homo sapiens, UniProt Q99685, L169S/L176S)
Assay: MGL ThermoFluor assay - mutant
Assay type: binding
Conditions: ThermoFluor concentration-response, read-out: MGL mutant ThermoFluor Kd
Numbers only, in nM.

Below: 4 molecules and their reported Kd.
O=C(c1ccccc1)N1CCN(C2CN(C(=O)c3ccc(-c4ccccc4)c(F)c3)C2)CC1
66.7
O=C(c1ccc(-c2ccccc2)cc1)N1CCN(C2CN(C(=O)c3ccns3)C2)CC1
124
O=C(c1ccc(-c2ccc(C(F)(F)F)s2)cc1)N1CCN(C2CN(C(=O)c3nccs3)C2)CC1
25
O=C(c1ccc2[nH]c3c(c2c1)CCCC3)N1CC(N2CCN(C(=O)c3nccs3)CC2)C1
83

# per-item lookup of Kd; items listed below
1. O=C(c1cccc(-c2cccc(Br)n2)c1)N1CC(N2CCN(C(=O)c3nccs3)CC2)C1
2. O=C(c1ccc(Oc2ccccc2Cl)nc1)N1CC(N2CCN(C(=O)c3cscn3)CC2)C1
3. O=C(c1ccc(OC(F)(F)F)c(Cl)c1)N1CC(N2CCN(C(=O)c3nccs3)CC2)C1

[25, 3330, 60]
